The measurements presented in this section are drawn from paper PMC11629607.

For each entry below, report its ∆Tm value.
- TESTED ON: T1, full-length mouse CNPase (Mus musculus (mouse), UniProt P16330)
- T1 construct: 2′,3′-cyclic nucleotide 3′-phosphodiesterase (CNPase), mouse, full-length; also called mCNPase; full-length mCNPase; source: E. coli Rosetta (DE3), pTH27 vector, autoinduction, purified (SEC)
- T1 sequence (P16330 whole entry): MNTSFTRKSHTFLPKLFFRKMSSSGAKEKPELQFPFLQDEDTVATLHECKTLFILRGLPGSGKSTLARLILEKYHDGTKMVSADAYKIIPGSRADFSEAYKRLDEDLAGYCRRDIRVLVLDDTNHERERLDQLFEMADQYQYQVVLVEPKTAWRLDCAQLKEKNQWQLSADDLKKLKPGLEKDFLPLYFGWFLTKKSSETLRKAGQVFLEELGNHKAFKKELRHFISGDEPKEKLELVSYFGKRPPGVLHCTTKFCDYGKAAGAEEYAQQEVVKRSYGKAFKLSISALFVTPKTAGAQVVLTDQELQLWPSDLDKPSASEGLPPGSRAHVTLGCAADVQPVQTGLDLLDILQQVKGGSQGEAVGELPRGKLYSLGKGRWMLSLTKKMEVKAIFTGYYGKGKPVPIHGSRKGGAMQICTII
- ASSAY METHOD TEXT: DSF thermal shift (SYPRO-Orange); full-length CNPase with Nb; 20 mM HEPES, 150 mM NaCl, 0.5 mM TCEP, pH 7.5; 20–95°C; N = 3
- CONDITION LABEL: both partners purified
Numbers only, in °C.

anti-CNPase nanobody NbCNP 7E (VHH, source: E. coli Shuffle T7, His6-MaBP fusion (pHMGWA), purified (NiNTA, TEV, reverse NiNTA, SEC); not shown: His6, N-terminal, cleaved) VHH: EVQLEESGGGWVHPGGSLRLSCAASGNVFGVNTMAWYRQAPGKQREQRELVASITDYGTTEYADSVKGRFTISGDNAKATVYLQMNSLKPEDTAVYYCNMDLTVMTATSSLYAYDYWGQGTQVTVSS ... 2.1

Give measured ∆Tm for every item shown.
1. anti-CNPase nanobody NbCNP 8D (VHH, this construct has a short, extended tail; The batch from the His14-bdSUMO system was used for structural work; also called Nb 8D; source: E. coli SHuffle Express, His14-bdSUMO fusion, purified (Ni2+ beads, eluted by bdSENP1 cleavage)) VHH: EVQLEESGGGLVQPGGSLRLSCAASGFTFSSYVMSWVRQAPGKGLEWVSDINSGGSRTYYTDSVKGRFTISRDNAKNTLYLQMNSLKPEDTAVYYCARDSLLSTRYLHTSERGQGTQVTVSS
2. anti-CNPase nanobody NbCNP 10E (VHH, Purified as described for anti-Arc Nbs (Markusson et al., 2022); source: E. coli, pTH27 vector, purified (SEC, TEV, reverse NiNTA, SEC); not shown: His6, N-terminal, cleaved) VHH: EVQLEESGGGLVQPGGSLRLSCAVSGITLDDFGIGWFRQAPGKEREGVACISPGYEHIYYADSAKGRFTISRDNAKNTVYLQMNNLKPWDTGVYYCAADNDLPDRLWGGSDWSDPSPYDYWGQGTQVTVSS
3. anti-CNPase nanobody NbCNP 8C (VHH, Extra disulphide between CDR2 and CDR3; source: E. coli Shuffle T7, His6-MaBP fusion (pHMGWA), purified (NiNTA, TEV, reverse NiNTA, SEC); not shown: His6, N-terminal, cleaved) VHH: EVQLEESGGGLVQAGGSLTLSCAASGFTFDDYAMGWYRQAPGKERVGVSCISRTDGYTYYLDSVKGRFTISTDHAKHTVYLQMNNLKPDDTGLYYCAADADPEYGSRCPDPYYGMDYWGKGILVTVSS
4. anti-CNPase nanobody NbCNP 5E (VHH, Extra disulphide between CDR2 and CDR3; also called Nb5E; source: E. coli Shuffle T7, His6-MaBP fusion (pHMGWA), purified (NiNTA, TEV, reverse NiNTA, SEC); not shown: His6, N-terminal, cleaved) VHH: EVQLLESGGGSVQAGGSLRLSCAASGFTVGDYAIGWFRQAPGQQREAVACISTDDGDTYYADSVKGRFTISSDNAKKTAYLEMNNLKPEDTAVYHCAVDGWDSSCTFYSPSYYRDFSDHGAWGQGTQVTVSS

*A*
1. 18
2. 4.2
3. 9.2
4. 17
